Each record here notes measured IC50.
System: MYB mRNA
Assay: Splicing RT-qPCR assay, MYB canonical (CJ) and alternative (AJ) junction mRNA
Format: cell-based, human
Settings: Homo sapiens, 24 h, A673 or K562 cells, 24 hours compound treatment, RT-qPCR; read-out: MYB CJ (IC50, decrease in canonical junction mRNA)

>  <molecule>
CCn1cc2c(N3CCC(NC4CC4)C3)cc(F)c(C(=O)Nc3cc(F)c4nc(C)cn4c3)c2n1 (stereo not drawn) [Compound 569]

>  <IC50>
< 0.1 µM

$$$$
>  <molecule>
COC(C)Cn1cc2c(N3CCNCC3)ccc(C(=O)Nc3cc(F)c4nc(C)cn4c3)c2n1 (stereo not drawn) [Compound 367]

>  <IC50>
0.1 to 1 µM

$$$$
>  <molecule>
CCn1cc2c(N3CC[C@H](NC)C3)cc(F)c(C(=O)Nc3cc(F)c4nc(C)cn4c3)c2n1 [Compound 478, bis(trifluoroacetic acid)]

>  <IC50>
< 0.1 µM

$$$$

Turning now to a further molecule:
# input Which value of IC50 has been reported for Cc1cn2cc(NC(=O)c3ccc(N4CCNCC4)c4cn(CC5(O)CC5)nc34)cc(F)c2n1 [Compound 358] in the records?
# output 0.1 to 1 µM

###

Each record here notes measured AC50.
System: MYB mRNA
Test: Splicing RT-qPCR assay, MYB canonical (CJ) and alternative (AJ) junction mRNA
Format: cell-based, human
Details: Homo sapiens, 24 h, A673 or K562 cells, 24 hours compound treatment, RT-qPCR; read-out: MYB AJ (AC50, increase in alternative junction mRNA)
Structures can show the parent of a compound that is named as a salt.

>  <compound>
Cc1cn2cc(NC(=O)c3ccc(N4CCN[C@H](C)C4)c4cn(C)nc34)cc(F)c2n1 (single isomer, unassigned)

>  <AC50>
< 100 nM

$$$$
>  <compound>
Cc1cn2cc(NC(=O)c3ccc(N4CCC(N)(C(F)(F)F)CC4)c4cn(C)nc34)cc(F)c2n1

>  <AC50>
1000 to 10000 nM

$$$$
>  <compound>
CCn1cc2c(N3C[C@@H](C)N[C@@H](C)C3)cc(F)c(C(=O)Nc3cc(F)c4nc(C)cn4c3)c2n1

>  <AC50>
< 100 nM

$$$$
>  <compound>
Cc1cn2cc(NC(=O)c3ccc(N4CC[C@@H](N5CCNCC5)C4)c4cn(C)nc34)cc(F)c2n1 [Compound 562, hydrochloride]

>  <AC50>
1000 to 10000 nM

$$$$
>  <compound>
CCn1cc2c(N(C)C3C[C@H]4CC[C@@H](C3)N4)ccc(C(=O)Nc3cc(F)c4nc(C)cn4c3)c2n1 (stereo partly shown)

>  <AC50>
1000 to 10000 nM

$$$$

# input Which value of AC50 has been reported for Cc1cn2cc(NC(=O)c3ccc(N4CCNCC4)c4cn(CC5(O)COC5)nc34)cc(F)c2n1 in the records?
# output 1000 to 10000 nM

# input Item: Cc1cn2cc(NC(=O)c3ccc(N4CCNCC4)c4cn(C)nc34)ccc2n1
# output < 100 nM

###

Test system: HTT mRNA
Assay: Splicing RT-qPCR assay, HTT canonical (CJ) and alternative (AJ) junction mRNA
Format: cell-based, human
Details: Homo sapiens, A673 or K562 cells, 24 hours compound treatment, read-out: HTT AJ (AC50, increase in alternative junction mRNA)
Each record here notes measured AC50.

Example results:
>  <molecule>
CCn1cc2c(N3CCNC(CO)C3)ccc(C(=O)Nc3cc(F)c4nc(C)cn4c3)c2n1 (centres unmarked)

>  <tested.target>
HTT mRNA

>  <AC50>
1000 to 10000 nM

$$$$
>  <molecule>
CCn1cc2c(N3CCC(NC4(CO)CC4)CC3)ccc(C(=O)Nc3cc(F)c4nc(C)cn4c3)c2n1

>  <tested.target>
HTT mRNA

>  <AC50>
1000 to 10000 nM

$$$$
>  <molecule>
Cc1nc2c(F)cc(NC(=O)c3ccc(N4CCNCC4)c4cn(C)nc34)cn2n1

>  <tested.target>
HTT mRNA

>  <AC50>
100 to 1000 nM

$$$$
>  <molecule>
Cc1cn2cc(NC(=O)c3ccc(N4CC5(N)CC4C5)c4cn(C)nc34)cc(F)c2n1

>  <tested.target>
HTT mRNA

>  <AC50>
> 10000 nM

$$$$
>  <molecule>
Cc1cn2cc(NC(=O)c3ccc(N4CCNCC4)c4cn(Cc5cnco5)nc34)cc(F)c2n1

>  <tested.target>
HTT mRNA

>  <AC50>
1000 to 10000 nM

$$$$

# input # returns recorded AC50 (system: HTT mRNA) for CCn1cc2c(N3CCN(C)CC3)ccc(C(=O)Nc3cc(F)c4nc(CO)oc4c3)c2n1
# output > 10000 nM

# input Item: Cc1cn2cc(NC(=O)c3ccc(N4CC[C@@H](NC(C)C)C4)c4cn(C)nc34)cc(F)c2n1
# output > 10000 nM

# input Item: Cc1cn2cc(NC(=O)c3ccc(N4C5CNCC54)c4cn(C)nc34)cc(F)c2n1 (centres unmarked)
# output 100 to 1000 nM

###

These records show GI50 for K562 cells.

Example results:
>  <molecule>
Cc1cn2nc(NC(=O)c3ccc(N4CCNCC4)c4cc(C)oc34)cc(C)c2n1 [Compound 148]

>  <result>
1000 to 10000 nM

$$$$
>  <molecule>
Cc1cn2cc(NC(=O)c3ccc(N4CCN(C)CC4)c4cc(C)oc34)cc(F)c2n1 [Compound 189]

>  <result>
100 to 1000 nM

$$$$
>  <molecule>
Cc1cn2cc(NC(=O)c3ccc(N4CCC(NC(C)(C)C)CC4)c4cc(C)oc34)cc(F)c2n1 [Compound 197]

>  <result>
100 to 1000 nM

$$$$

# input # returns recorded GI50 (system: K562 cells) for Cc1cn2cc(NC(=O)c3ccc(N4CCNCC4)c4nc(C)oc34)cc(F)c2n1 [Compound 140]
# output 1000 to 10000 nM

# input Item: Cc1cn2cc(NC(=O)c3ccc(N4CCN5CCCC5C4)c4cc(C)oc34)cc(F)c2n1 (stereo not shown) [Compound 199]
# output 100 to 1000 nM

# input Item: CCn1cc2c(N3CCC(N)(CC)CC3)cc(F)c(C(=O)Nc3cc(F)c4nc(C)cn4c3)c2n1 [Compound 557]
# output < 100 nM

###

Each record here notes measured IC50.
Test system: MYB mRNA
Assay: Splicing RT-qPCR assay, MYB canonical (CJ) and alternative (AJ) junction mRNA
Assay type: cell-based, human
Conditions: Homo sapiens, 24 h, A673 or K562 cells, 24 hours compound treatment, RT-qPCR; read-out: MYB CJ (IC50, decrease in canonical junction mRNA)

>  <compound>
CNC1CCN(c2ccc(C(=O)Nc3cc(F)c4nc(C)cn4c3)c3nn(C)cc23)CC1

>  <IC50>
< 100 nM

$$$$

# input Which value of IC50 has been reported for Cc1cn2nc(-c3ccc(C(=O)NC4CCNCC4)c4oc(C)cc34)cc(C)c2n1 in the records?
# output > 10000 nM

# input Item: CCn1cc2c(N3CC4(CNC4)C3)ccc(C(=O)Nc3cc(F)c4nc(C)cn4c3)c2n1
# output 100 to 1000 nM

# input Item: Cc1cn2cc(NC(=O)c3ccc(N4CCNCC4)c4cn(CC(O)CO)nc34)cc(F)c2n1 (stereo not shown)
# output > 10000 nM

# input Item: Cc1cn2nc(NC(=O)c3ccc(N4CCNCC4)c4cc(C)oc34)cc2c(C)n1
# output > 10000 nM

###

System: MYB mRNA
Test: Splicing RT-qPCR assay, MYB canonical (CJ) and alternative (AJ) junction mRNA
Type: cell-based, human
Settings: Homo sapiens, 24 h, A673 or K562 cells, 24 hours compound treatment, RT-qPCR; read-out: MYB AJ (AC50, increase in alternative junction mRNA)
endpoint: AC50

>  <substance.smiles>
Cc1cn2cc(NC(=O)c3ccc(N4CCNCC4)c4cn(CC56CC(O)(C5)C6)nc34)cc(F)c2n1

>  <tested.target>
MYB mRNA

>  <AC50>
1000 to 10000 nM

$$$$
>  <substance.smiles>
Cc1cn2cc(NC(=O)c3ccc(N4CC[C@@H](NC5CCC5)C4)c4cn(C)nc34)cc(F)c2n1

>  <tested.target>
MYB mRNA

>  <AC50>
< 100 nM

$$$$
>  <substance.smiles>
COCCOc1nc2c(C(=O)Nc3cc(F)c4nc(C)cn4c3)ccc(N3CCNCC3)c2o1

>  <tested.target>
MYB mRNA

>  <AC50>
> 10000 nM

$$$$

Turning now to a further compound:
# input Which value of AC50 has been reported for Cc1cn2nc(NC(=O)c3ccc(N4CCNCC4)c4cc(C)oc34)cc2c(C)n1 in the records?
# output > 10000 nM

All values here come from patent US20250154169A1.
